- System: UO-31 renal
- test-description: NCI-60 one-dose screen, 48 h
- test-conditions: 10 µM unless noted
This is part of a sample that, as a whole, favours compounds with a hit. Of some 83,000 tested, about 20% had one in any assay. Calls of active or inactive are those of the source. Rule for the calls: active = growth percent below 10; inactive = the rest.
Pick one and only one: T = active, F = inactive

Recorded results for 5 compounds are shown here.
C[C@H](NC(=O)c1ccc2c(-c3ccc(C(F)(F)F)cc3)cccc2c1)c1ccccn1 :: F
Cn1cc(-c2cc3nc(-c4c[nH]c5ccccc45)cc(N)n3n2)c2ccccc21 :: T
N#CC1=C(c2cccs2)Nc2c(c(-c3ccccc3)nn2-c2ccccc2)C12C(=O)Nc1ccccc12 (stereo not given) :: F
COc1ccc(NC2=C(I)C(=O)C(C)=C(C)C2=O)cc1 :: F
Cc1ccccc1Nc1nnc(-c2c[nH]c3ccccc23)o1 :: F

Query :: Short answer needed: outcome of this test for Cc1cccc(-c2ccccc2Oc2ccc3nnc(Cl)n3n2)c1 ?
Result :: F

* * *

- Tested on: SK-MEL-28 melanoma
- test-description: NCI-60 one-dose screen, 48 h (100 = growth as untreated, 0 = no growth, -100 = all killed)
- test-conditions: 10 µM unless noted
Compounds without any hit were thinned out: in the full panel of roughly 83,000, 20% have a hit.
measured-attribute: growth (%)
Express the result in % but write the number alone.

COc1c(F)ccc(C(=O)Nc2ccc3nc(NC(=O)C4CCCN(S(=O)(=O)c5ccc(C(C)(C)C)cc5)C4)sc3c2)c1F (centres undefined) :: 81.3
Nc1nn2c(-c3cc4ccccc4oc3=O)ccnc2c1N=Nc1ccccc1 :: 90.2
O=C1/C(=C/c2cnc(-c3ccccc3)s2)SC(=S)N1Cc1ccc2c(c1)OCO2 :: 103
Clc1ccccc1Nc1nnc(-c2c[nH]c3ccccc23)o1 :: 59.4

Item COc1c(B(O)O)cc(F)cc1-c1nc2ccc3[nH]ncc3c2c2c1COCC2 was tested on SK-MEL-28 melanoma; the reported growth is 61.9

Item CC(=O)c1c2c(c3ccc4c5ccccc5ccc4n13)C(=O)c1ccccc1C2=O was tested on SK-MEL-28 melanoma; the reported growth is 101

Item Cc1ccc(C(=O)Nc2cc(-n3ccnc3C)cc(C(F)(F)F)c2)cc1C#Cc1cnc2cccnn12 was tested on SK-MEL-28 melanoma; the reported growth is -32.4

Item O=C1NC(=S)/C(=C/c2cn(-c3ccccc3)nc2-c2ccccc2)S1 was tested on SK-MEL-28 melanoma; the reported growth is 20.5

* * *

- Test system: NCI-H460 lung
- test-description: NCI-60 one-dose screen, 48 h (100 = growth as untreated, 0 = no growth, -100 = all killed)
- test-conditions: 10 µM unless noted
This is part of a sample that, as a whole, favours compounds with a hit. Of some 83,000 tested, about 20% had one in any assay.
measured-attribute: growth (%)
Express the result in % but write the number alone.

Take a look at these entries with their results.
Cc1ccc(N=Nc2c(N)nn3c(-c4cc5cc(Br)ccc5oc4=O)ccnc23)cc1 :: 34.9
CS(=O)(=O)Nc1cccc(-n2c(COc3ccc(OC(F)(F)F)cc3)nc3ccccc32)c1 :: 110
CN(C)c1nc(NCCNS(=O)(=O)c2ccc(C(=O)/C=C/c3ccccc3)cc2)nc(N2CCOCC2)n1 :: 101
CCOC(=O)/C(F)=C/C1CC1C(c1ccccc1)c1ccccc1 (stereo not drawn) :: 38.7
CCCSc1nnc(-c2c(C)nc3sccn23)o1 :: 97.9
CCN1C(=O)N(CC)C2NNC(Sc3c(C(=O)O)c4ccccc4n(CC(C)C)c3=O)=NC21 (stereo not drawn) :: -1.23
CN(CCSSCCN1CCOCC1)C(=O)Oc1cc2c(c3ccccc13)[C@H](CCl)CN2C(=O)c1cc2cc(OCCCN3CCC3)ccc2[nH]1 :: -23.3
COc1cc(CNC(=O)C[C@H](C)CCC=C(C)C)ccc1OCc1cn(-c2cccc(C(F)(F)F)c2)nn1 :: 14.6
CN1C(=O)/C(=C/c2ccco2)S/C1=N/c1nccs1 :: 103
COc1ccc(/C=C/c2nc3ccccc3n3c(-c4cccc([N+](=O)[O-])c4)nnc23)cc1 :: -35.6

# growth (compound: COc1ccc(N=Nc2c(N)nn3c(-c4ccc5c(c4)C=S=C5)ccnc23)cc1 ) is 35.3

# growth (compound: COC(=O)c1cc(C(C)=O)n2c3ccccc3c3ccccc3c12 ) is 110

# growth (compound: N#C/C(=C/c1ccc([N+](=O)[O-])cc1)c1nnc(NC(=O)c2ccc(-n3c(=O)[nH]c4ccccc4c3=O)cc2)s1 ) is 79.2

# growth (compound: O=C(N/N=C/c1occc1Br)c1[nH]c2ccc(Br)cc2c1-c1ccccc1 ) is -86.2

# growth (compound: C#CCN(C)CCCOc1ccc(N(CC)C(=O)c2cc(C(C)C)c(O)cc2O)cc1Cl ) is -52.4

# growth (compound: O=C(CSc1nc2ccccc2c(=O)[nH]1)NNC(=O)c1ccccc1Cl ) is 106

# growth (compound: C#CCCCNCCNc1ccnc2cc(Cl)ccc12 ) is 83.2

# growth (compound: Clc1ccc(-c2nc3ccc(-c4nnc(SCc5ccccc5)o4)cc3[nH]2)cc1 ) is 41.4

# growth (compound: COc1ccc(NC(=O)N/N=C/c2c[nH]c3ccccc23)cc1 ) is 14.9

# growth (compound: COC(=O)c1c(C(=O)OC)c2ccc3c4ccccc4ccc3n2c1C(=O)OC ) is 111

# growth (compound: N/C(=N\c1nc2ccc([N+](=O)[O-])cc2s1)NC(=O)Nc1ccccc1Cl ) is 11.3

# growth (compound: O=C(c1ccc(Cl)cc1)C1[C@H](c2ccccc2Cl)[C@@H](c2ccccc2)NC12C(=O)Nc1ccc(Cl)cc12 (stereo partly drawn) ) is -69.2

# growth (compound: CN1C(=O)/C(=C\C(=O)c2cc3ccccc3oc2=O)c2ccccc21 ) is 92.1

# growth (compound: CN1CCN(C(=O)CCN(C(=O)Oc2cc3c(c4ccccc24)[C@H](CCl)CN3C(=O)c2cc3cc(OCCCN4CCC4)ccc3[nH]2)[C@H]2CCSSC2)CC1 ) is 2.93

# growth (compound: O=CNc1ccc(-n2cnc3cc(-c4ccc(O)cc4)ccc32)cc1 ) is 87.4

# growth (compound: O=C1NC(=S)/C(=C/c2cn(-c3ccccc3)nc2-c2ccccc2)S1 ) is 9.19

# growth (compound: O=C(CSc1nnc(-c2ccc(-c3nc4ccccc4[nH]3)cc2)o1)Nc1ccccc1 ) is 12
